Measured values drawn from patent US4771046A for this set.

The reader will find MIC measurements below, all made with Klebsiella pneumoniae 806.
Return type: number; implicit unit µg/mL.

C[C@@H](O)[C@H]1C(=O)N2C(C(=O)O)=C(SCC(=N)N3CCNC(=O)C3)C[C@H]12    0.2
C[C@@H](O)[C@H]1C(=O)N2C(C(=O)O)=C(SCC(=N)N3CCC(=NO)CC3)C[C@H]12    0.1
C[C@@H](O)[C@H]1C(=O)N2C(C(=O)O)=C(SCC(=N)N3CCC(=NO)CC3)[C@H](C)[C@H]12    0.05
C[C@@H](O)[C@H]1C(=O)N2C(C(=O)O)=C(SCC(=N)N3CC[C@@H](OC(N)=O)C3)[C@H](C)[C@H]12    0.05
C[C@@H](O)[C@H]1C(=O)N2C(C(=O)O)=C(SCC(=N)N3CC[C@@H](OC(N)=O)C3)C[C@H]12    0.1

# next compound below
[Q] Param readout= MIC; system= Klebsiella pneumoniae 806; entry= C[C@@H](O)[C@H]1C(=O)N2C(C(=O)O)=C(SCC(=N)N3CCNC(=O)C3)[C@H](C)[C@H]12 ; returns value.
[A] 0.02
